Biological target: hA2A AR (Homo sapiens, UniProt P29274)
Construct: expressed in transfected cells; host or cells: Hela-A2A cell line
Sequence (P29274 whole entry): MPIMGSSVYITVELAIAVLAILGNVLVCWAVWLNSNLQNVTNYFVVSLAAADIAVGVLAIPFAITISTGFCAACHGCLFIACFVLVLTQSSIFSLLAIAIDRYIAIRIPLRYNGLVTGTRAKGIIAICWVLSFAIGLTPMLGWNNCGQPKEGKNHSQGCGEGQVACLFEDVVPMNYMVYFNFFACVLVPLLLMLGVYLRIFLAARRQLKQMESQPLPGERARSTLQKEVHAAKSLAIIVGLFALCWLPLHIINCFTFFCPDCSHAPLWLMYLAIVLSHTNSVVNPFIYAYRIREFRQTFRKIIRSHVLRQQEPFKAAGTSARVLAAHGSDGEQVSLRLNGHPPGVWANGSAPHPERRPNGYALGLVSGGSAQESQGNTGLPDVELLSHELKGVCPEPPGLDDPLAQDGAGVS
Experiment: Radioligand competition binding assay at hA2A AR
Conditions: 10 μM compound; [3H]ZM241385; Hela cells; read-out: Percentage Inhibition (%) at 10 μM, hA2A AR
Measured property: inhibition at 10 µM

Task: Would you kindly share the measured inhibition at 10 µM for COc1ccc(Nc2nc(N)nc(-c3cc(F)c(O)c(F)c3)n2)cc1F [Compound 11h] ?
Result: 26%

Task: Any idea what inhibition at 10 µM was measured for COC(=O)c1ccc(-c2nc(N)nc(Nc3ccc(OC)c(F)c3)n2)cc1 [Compound 11f] ?
Result: 35%

Task: Record request: inhibition at 10 µM value, item Nc1nc(Nc2ccc(N3CCCCC3)cc2)nc(-c2ccc(O)cc2)n1
Result: 28%

Task: Which value of inhibition at 10 µM has been reported for COc1cc(Nc2nc(N)nc(-c3ccc(O)cc3)n2)cc(OC)c1 in the records?
Result: 84%

Task: State the recorded inhibition at 10 µM for this entry: COc1ccc(Nc2nc(N)nc(-c3ccc(F)c([N+](=O)[O-])c3)n2)cc1F [Compound 11i]
Result: 57%

Task: Requested read-out: inhibition at 10 µM. Entry: Cc1ccc(Nc2nc(N)nc(-c3ccc(O)cc3)n2)c(C)c1
Result: 80%

Task: Entry Cc1cc(C)cc(Nc2nc(N)nc(-c3ccc(O)cc3)n2)c1 has what inhibition at 10 µM?
Result: 58%

Task: Using the record for COc1cc(Nc2nc(N)nc(-c3ccc(O)cc3)n2)ccc1Cl , report its inhibition at 10 µM.
Result: > 95%

Task: Give the measured inhibition at 10 µM of Nc1nc(Nc2cccc(C(F)(F)F)c2)nc(-c2ccc(O)cc2)n1 .
Result: 40%

Task: What inhibition at 10 µM value was documented for this compound, COc1ccc(Nc2nc(N)nc(-c3ccc(C#N)cc3)n2)cc1F [Compound 11e] ?
Result: 50%

Task: # lookup: inhibition at 10 µM of CCOC(=O)c1ccc(-c2nc(N)nc(Nc3ccc(OC)c(F)c3)n2)cc1 [Compound 11g]
Result: 48%

Task: // query inhibition at 10 µM value for entry COc1ccc(-c2nc(N)nc(Nc3ccc(OC)c(F)c3)n2)cc1 [Compound 11a]
Result: 83%

Task: Recorded inhibition at 10 µM for COc1ccc(Nc2nc(N)nc(-c3ccc(OC(F)(F)F)cc3)n2)cc1F [Compound 11c] , please?
Result: 81%

Task: Quick check: inhibition at 10 µM of COc1ccc(Nc2nc(N)nc(-c3ccc(C(F)(F)F)cc3)n2)cc1F [Compound 11d] ?
Result: 30%

Task: Would you mind telling me what inhibition at 10 µM value was observed for COc1ccc(Nc2nc(N)nc(-c3ccc(O)cc3)n2)cc1F ?
Result: 58%

Task: Dear colleague, I am looking for the recorded inhibition at 10 µM of the following compound: COc1ccc(Nc2nc(N)nc(-c3ccc(F)cc3)n2)cc1F [Compound 11b]
Result: 49%

###

Target: hA2B AR (Homo sapiens, UniProt P29275)
Construct: host or cells: HEK-A2B (HEK-293T-A2B) cell line
Sequence (P29275 whole entry): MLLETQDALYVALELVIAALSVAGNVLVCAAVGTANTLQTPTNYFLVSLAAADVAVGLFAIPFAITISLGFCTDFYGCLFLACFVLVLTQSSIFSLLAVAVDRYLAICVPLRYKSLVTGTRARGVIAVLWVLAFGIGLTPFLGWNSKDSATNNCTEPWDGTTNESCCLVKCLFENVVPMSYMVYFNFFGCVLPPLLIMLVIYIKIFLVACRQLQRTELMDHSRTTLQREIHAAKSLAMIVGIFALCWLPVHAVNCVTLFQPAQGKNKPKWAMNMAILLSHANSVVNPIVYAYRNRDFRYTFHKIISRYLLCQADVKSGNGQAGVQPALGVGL
Assay: Radioligand competition binding assay at hA2B AR
Details: 10 μM compound; [3H]DPCPX; HEK-293 cells; read-out: Percentage Inhibition (%) at 10 μM, hA2B AR
Kindly supply the reported inhibition at 10 µM values for the records listed here.
Record the result as a number with its unit.

Task: Which inhibition at 10 µM is listed for COc1ccc(Nc2nc(N)nc(-c3cc(F)c(O)c(F)c3)n2)cc1F [Compound 11h] ?
Result: 66%

Task: Look up inhibition at 10 µM for this molecule: COc1cc(Nc2nc(N)nc(-c3ccc(O)cc3)n2)ccc1Cl
Result: 90%

Task: Query (molecule): Nc1nc(Nc2ccc(N3CCCCC3)cc2)nc(-c2ccc(O)cc2)n1 ; field requested: inhibition at 10 µM
Result: 44%

Task: Quick one: inhibition at 10 µM for COC(=O)c1ccc(-c2nc(N)nc(Nc3ccc(OC)c(F)c3)n2)cc1 [Compound 11f] ?
Result: 55%

Task: Which inhibition at 10 µM value is on record for Cc1ccc(Nc2nc(N)nc(-c3ccc(O)cc3)n2)c(C)c1 ?
Result: 47%

Task: // query inhibition at 10 µM value for entry COc1ccc(Nc2nc(N)nc(-c3ccc(OC(F)(F)F)cc3)n2)cc1F [Compound 11c]
Result: 27%

Task: Need inhibition at 10 µM of COc1ccc(Nc2nc(N)nc(-c3ccc(F)c([N+](=O)[O-])c3)n2)cc1F [Compound 11i] , thanks.
Result: 72%

Task: What value of inhibition at 10 µM has been recorded for this entry: COc1cc(Nc2nc(N)nc(-c3ccc(O)cc3)n2)cc(OC)c1
Result: 62%

Task: Name the recorded inhibition at 10 µM for COc1ccc(Nc2nc(N)nc(-c3ccc(C#N)cc3)n2)cc1F [Compound 11e] .
Result: 52%
